- measured_target: Acetylcholinesterase (Rattus norvegicus) (UniProt P37136)
- Sequence (whole entry): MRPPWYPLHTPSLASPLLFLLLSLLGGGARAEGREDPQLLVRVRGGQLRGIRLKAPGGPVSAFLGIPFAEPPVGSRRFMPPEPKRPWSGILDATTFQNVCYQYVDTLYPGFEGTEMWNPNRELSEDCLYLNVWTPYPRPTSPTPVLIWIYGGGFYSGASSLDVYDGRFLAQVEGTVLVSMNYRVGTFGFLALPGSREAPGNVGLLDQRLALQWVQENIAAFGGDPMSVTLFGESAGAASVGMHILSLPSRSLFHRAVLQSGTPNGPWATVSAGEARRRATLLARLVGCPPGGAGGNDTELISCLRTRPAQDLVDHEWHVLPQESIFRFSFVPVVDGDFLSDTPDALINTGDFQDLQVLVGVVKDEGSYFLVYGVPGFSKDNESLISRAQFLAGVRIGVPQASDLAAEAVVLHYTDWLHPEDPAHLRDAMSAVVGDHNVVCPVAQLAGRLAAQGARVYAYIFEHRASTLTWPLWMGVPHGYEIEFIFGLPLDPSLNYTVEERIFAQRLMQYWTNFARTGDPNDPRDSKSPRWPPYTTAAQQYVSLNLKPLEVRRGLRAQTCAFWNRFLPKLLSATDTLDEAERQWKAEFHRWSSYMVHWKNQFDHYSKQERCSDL
- test: Inhibition of rat cortex homogenate acetylcholinesterase at 40 uM using acetylthiocholine iodide as substrate incubated for 20 mins by Ellman's method relative to control
- Assay type: tissue-based
Documented inhibition across a set of compounds
Numbers only here, please. The scale is %.

>>> print(df.to_string())
                                   compound  value_reported
0  COc1cc2c(cc1OC)C(=O)C(CC1(F)CCN(Cc3ccc(OC(F)(F)F)cc3)CC1)C2 (stereo not given)            51.7
1  COc1cc2c(cc1OC)C(=O)C(CC1(F)CCN(Cc3ccc(C(C)(C)C)cc3)CC1)C2 (stereo not given)            69.1
2  COc1cc2c(cc1OC)C(=O)C(CC1(F)CCN(CCc3ccccc3F)CC1)C2 (stereo not given)            74.7
3  COc1cc2c(cc1OCC1CC1)C(=O)C(CC1(F)CCN(Cc3ccccc3F)CC1)C2 (stereo not given)             8.4

*Q* Consider the compound COc1cc2c(cc1OC)C(=O)C(CC1(F)CCN(Cc3ccc(C(F)(F)F)cc3)CC1)C2 (stereo not given) tested on Acetylcholinesterase (Rattus norvegicus) (UniProt P37136); state its inhibition.
*A* 75.3

Taken from ChEMBL document CHEMBL4813953.
